Assign melting point to each entry below.

# query: melting point of entry "O=C(CSc1nc2ccccc2cc1-c1nc2ccccc2c(=O)[nH]1)Nc1ccc(Br)cc1"
208 to 210 °C

# query: melting point of entry "O=C(CSc1nc2ccccc2cc1-c1nc2ccccc2c(=O)[nH]1)Nc1cccc(Cl)c1"
212 to 214 °C

# query: melting point of entry "Cc1cccc(C)c1NC(=O)CSc1nc2ccccc2cc1-c1nc2ccccc2c(=O)[nH]1"
220 to 222 °C

# query: melting point of entry "Cc1cccc(NC(=O)CSc2nc3ccccc3cc2-c2nc3ccccc3c(=O)[nH]2)c1C"
208 to 210 °C

# query: melting point of entry "O=C(CSc1nc2ccccc2cc1-c1nc2ccccc2c(=O)[nH]1)Nc1ccc(O)cc1"
210 to 212 °C

# query: melting point of entry "O=C(CSc1nc2ccccc2cc1-c1nc2ccccc2c(=O)[nH]1)NCc1ccc(F)cc1"
205 to 207 °C

# query: melting point of entry "Cc1ccc(CNC(=O)CSc2nc3ccccc3cc2-c2nc3ccccc3c(=O)[nH]2)cc1"
202 to 204 °C
